ASSAY NOTES: Multiple-dose study of sulopenem delivered intravenously: plasma pharmacokinetics
Type: in vivo, human
DETAILS: human, plasma, iv, 800 mg, intravenous 800 mg (3 h BID); Day 1
PROPERTY MEASURED: half-life (min)
Supply the numeric figure in min, leaving out any unit text.

Q: Item C[C@@H](O)[C@H]1C(=O)N2C(C(=O)O)=C(S[C@H]3CC[S@@+]([O-])C3)S[C@H]12 has what recorded half-life?
Ans: 49.5

----------
ASSAY NOTES: Multiple-dose study of sulopenem delivered intravenously: plasma pharmacokinetics
Assay type: in vivo, human
DETAILS: human, plasma, iv, 2000 mg, intravenous 2000 mg (1.5 h BID); Day 1
PROPERTY MEASURED: AUC(0-inf) (ng·h/mL)
Supply the numeric figure in ng·h/mL, leaving out any unit text.

Q: Item C[C@@H](O)[C@H]1C(=O)N2C(C(=O)O)=C(S[C@H]3CC[S@@+]([O-])C3)S[C@H]12 [sulopenem] has what recorded AUC(0-inf)?
Ans: 90300

----------
ASSAY NOTES: Multiple-dose study of sulopenem delivered intravenously: plasma pharmacokinetics
Assay type: in vivo, human
DETAILS: human, plasma, iv, 800 mg, intravenous 800 mg (3 h BID); Day 14
PROPERTY MEASURED: AUC(0-inf) (ng·h/mL)
Supply the numeric figure in ng·h/mL, leaving out any unit text.

Q: Item C[C@@H](O)[C@H]1C(=O)N2C(C(=O)O)=C(S[C@H]3CC[S@@+]([O-])C3)S[C@H]12 [sulopenem] has what recorded AUC(0-inf)?
Ans: 26500

----------
ASSAY NOTES: Multiple-dose study of sulopenem delivered intravenously: plasma pharmacokinetics
Assay type: in vivo, human
DETAILS: human, plasma, iv, 1200 mg, intravenous 1200 mg (1 h BID); Day 14
PROPERTY MEASURED: AUC(0-t) (ng·h/mL)
Supply the numeric figure in ng·h/mL, leaving out any unit text.

Q: Item C[C@@H](O)[C@H]1C(=O)N2C(C(=O)O)=C(S[C@H]3CC[S@@+]([O-])C3)S[C@H]12 has what recorded AUC(0-t)?
Ans: 41300

----------
ASSAY NOTES: Multiple-dose study of sulopenem delivered intravenously: plasma pharmacokinetics
Format: in vivo, human
DETAILS: human, plasma, iv, 1200 mg, intravenous 1200 mg (1 h BID); Day 14
PROPERTY MEASURED: Cmax (µg/mL)
Supply the numeric figure in µg/mL, leaving out any unit text.

Q: Item C[C@@H](O)[C@H]1C(=O)N2C(C(=O)O)=C(S[C@H]3CC[S@@+]([O-])C3)S[C@H]12 has what recorded Cmax?
Ans: 30.7

----------
ASSAY NOTES: Multiple-dose study of sulopenem delivered intravenously: plasma pharmacokinetics
Type: in vivo, human
DETAILS: human, plasma, iv, 1200 mg, intravenous 1200 mg (1 h BID); Day 1
Protocol: The pharmacokinetics of sulopenem delivered intravenously were studied in a randomized, investigator-blind, subject-blind, sponsor-open, placebo-controlled, multiple-dose study of sulopenem. There were 5 cohorts dosed. Each subject was dosed for up to 14 days. Each cohort consisted of 10 subjects.
PROPERTY MEASURED: AUC(0-t) (µg·h/mL)
Supply the numeric figure in µg·h/mL, leaving out any unit text.

Q: Item C[C@@H](O)[C@H]1C(=O)N2C(C(=O)O)=C(S[C@H]3CC[S@@+]([O-])C3)S[C@H]12 [sulopenem] has what recorded AUC(0-t)?
Ans: 42.2

----------
ASSAY NOTES: Multiple-dose study of sulopenem delivered intravenously: plasma pharmacokinetics
Format: in vivo, human
DETAILS: human, plasma, iv, 1200 mg, intravenous 1200 mg ([…] BID); Day 1; median [range]
PROPERTY MEASURED: Tmax (h)
Supply the numeric figure in h, leaving out any unit text.

Q: Item C[C@@H](O)[C@H]1C(=O)N2C(C(=O)O)=C(S[C@H]3CC[S@@+]([O-])C3)S[C@H]12 [sulopenem] has what recorded Tmax?
Ans: 2.25

----------
ASSAY NOTES: Multiple-dose study of sulopenem delivered intravenously: plasma pharmacokinetics
Type: in vivo, human
DETAILS: human, plasma, iv, 1200 mg, intravenous 1200 mg ([…] BID); Day 14
PROPERTY MEASURED: AUC(0-t) (ng·h/mL)
Supply the numeric figure in ng·h/mL, leaving out any unit text.

Q: Item C[C@@H](O)[C@H]1C(=O)N2C(C(=O)O)=C(S[C@H]3CC[S@@+]([O-])C3)S[C@H]12 [sulopenem] has what recorded AUC(0-t)?
Ans: 34500

----------
ASSAY NOTES: Multiple-dose study of sulopenem delivered intravenously: plasma pharmacokinetics
Type: in vivo, human
DETAILS: human, plasma, iv, 1200 mg, intravenous 1200 mg ([…] BID); Day 14
PROPERTY MEASURED: Cmax (ng/mL)
Supply the numeric figure in ng/mL, leaving out any unit text.

Q: Item C[C@@H](O)[C@H]1C(=O)N2C(C(=O)O)=C(S[C@H]3CC[S@@+]([O-])C3)S[C@H]12 has what recorded Cmax?
Ans: 13500

----------
ASSAY NOTES: Multiple-dose study of sulopenem delivered intravenously: plasma pharmacokinetics
Assay type: in vivo, human
DETAILS: human, plasma, iv, 1200 mg, intravenous 1200 mg ([…] BID); Day 1
PROPERTY MEASURED: AUC(0-t) (ng·h/mL)
Supply the numeric figure in ng·h/mL, leaving out any unit text.

Q: Item C[C@@H](O)[C@H]1C(=O)N2C(C(=O)O)=C(S[C@H]3CC[S@@+]([O-])C3)S[C@H]12 has what recorded AUC(0-t)?
Ans: 41800

----------
ASSAY NOTES: Multiple-dose study of sulopenem delivered intravenously: plasma pharmacokinetics
Type: in vivo, human
DETAILS: human, plasma, iv, 1600 mg, intravenous 1600 mg (1.5 h BID); Day 14
PROPERTY MEASURED: CL renal (mL/min)
Supply the numeric figure in mL/min, leaving out any unit text.

Q: Item C[C@@H](O)[C@H]1C(=O)N2C(C(=O)O)=C(S[C@H]3CC[S@@+]([O-])C3)S[C@H]12 [sulopenem] has what recorded CL renal?
Ans: 327

----------
ASSAY NOTES: Multiple-dose study of sulopenem delivered intravenously: plasma pharmacokinetics
Type: in vivo, human
DETAILS: human, plasma, iv, 1600 mg, intravenous 1600 mg (1.5 h BID); Day 14
PROPERTY MEASURED: AUC(0-inf) (ng·h/mL)
Supply the numeric figure in ng·h/mL, leaving out any unit text.

Q: Item C[C@@H](O)[C@H]1C(=O)N2C(C(=O)O)=C(S[C@H]3CC[S@@+]([O-])C3)S[C@H]12 has what recorded AUC(0-inf)?
Ans: 54900

----------
ASSAY NOTES: Multiple-dose study of sulopenem delivered intravenously: plasma pharmacokinetics
Type: in vivo, human
DETAILS: human, plasma, iv, 800 mg, intravenous 800 mg (3 h BID); Day 14
Protocol: The pharmacokinetics of sulopenem delivered intravenously were studied in a randomized, investigator-blind, subject-blind, sponsor-open, placebo-controlled, multiple-dose study of sulopenem. There were 5 cohorts dosed. Each subject was dosed for up to 14 days. Each cohort consisted of 10 subjects.
PROPERTY MEASURED: AUC(0-t)
Record the result as a number with its unit.

Q: Item C[C@@H](O)[C@H]1C(=O)N2C(C(=O)O)=C(S[C@H]3CC[S@@+]([O-])C3)S[C@H]12 [sulopenem] has what recorded AUC(0-t)?
Ans: 26400 ng·h/mL

----------
ASSAY NOTES: Multiple-dose study of sulopenem delivered intravenously: plasma pharmacokinetics
Type: in vivo, human
DETAILS: human, plasma, iv, 2000 mg, intravenous 2000 mg (1.5 h BID); Day 1
PROPERTY MEASURED: AUC(0-t)
Record the result as a number with its unit.

Q: Item C[C@@H](O)[C@H]1C(=O)N2C(C(=O)O)=C(S[C@H]3CC[S@@+]([O-])C3)S[C@H]12 has what recorded AUC(0-t)?
Ans: 90.1 µg·h/mL

----------
ASSAY NOTES: Multiple-dose study of sulopenem delivered intravenously: plasma pharmacokinetics
Assay type: in vivo, human
DETAILS: human, plasma, iv, 1200 mg, intravenous 1200 mg (1 h BID); Day 14
PROPERTY MEASURED: AUC(0-inf) (ng·h/mL)
Supply the numeric figure in ng·h/mL, leaving out any unit text.

Q: Item C[C@@H](O)[C@H]1C(=O)N2C(C(=O)O)=C(S[C@H]3CC[S@@+]([O-])C3)S[C@H]12 has what recorded AUC(0-inf)?
Ans: 41400

----------
ASSAY NOTES: Multiple-dose study of sulopenem delivered intravenously: plasma pharmacokinetics
Type: in vivo, human
DETAILS: human, plasma, iv, 1200 mg, intravenous 1200 mg (1 h BID); Day 1
PROPERTY MEASURED: half-life

Q: Item C[C@@H](O)[C@H]1C(=O)N2C(C(=O)O)=C(S[C@H]3CC[S@@+]([O-])C3)S[C@H]12 [sulopenem] has what recorded half-life?
Ans: 1.04 h

The measured values listed here are drawn from patent US12109197B2.
